test system: A/Lyon/969/09 (H1N1)pdm09 virus; assay: microbe, parasite or virus in culture; assay type: cell-based, influenza A(H1N1)pdm09 virus; details: Influenza A virus, H1N1, A549, 48 h
parameter measured: pEC50
Give only the number. pEC50 is defined as minus log10 of concentration in molar units.

Req: Fill in the blank: the reported pEC50 of NC(=O)c1ncn([C@@H]2O[C@H](CO)[C@@H](O)[C@H]2O)n1 is ____.
Resp: 9.07

###

system: A/Lyon/969/09 (H1N1)pdm09 virus; assay: microbe, parasite or virus in culture; type: cell-based, influenza A(H1N1)pdm09 virus; settings: pre-treatment/treatment in vitro; A549; […]; read-out: EC50
Counter-ions that a name gives are not always drawn.
Overview of reported EC50 across a group of compounds:
# number only, unit nM dropped from output

compound: CC1(C)S[C@@H]2[C@H](NC(=O)Cc3ccccc3)C(=O)N2[C@H]1C(=O)O [Benzathin Benzylpenicilline, Benzathine benzylpenicillin]
EC50 [nM]: 0.26

Req: Look up EC50 for this compound: CCCCCCC[N+](CC)(CC)CCCCc1ccc(Cl)cc1 [Clofilium tosylate]
Resp: 0.16
